- measurement description: Non-human primate (NHP) CSF pharmacokinetic properties (Example 6)
- Format: in vivo, Cynomolgus monkeys
- test conditions: male, CSF; Cynomolgus monkey, 1 mg/kg PO, @ 24 h; read-out: CSF Conc.
property: concentration at 24 h (nM)
Give the value, in units of nM, as a plain number.

Prompt: Requested field: concentration at 24 h. Item: Fc1ccccc1Cc1nc(-c2nc(C(F)(F)F)n[nH]2)cn2ccnc12
Response: 11

* * *

- measured on: sGC enzyme (Homo sapiens, UniProt Q02108+Q02153)
- Construct: sGC enzyme activity values in HEK cells, determined by the GloSensor assay; host or cells: HEK293 cells stably expressing GloSensor 40F cGMP biosensor
- Sequence (Q02153 1-619): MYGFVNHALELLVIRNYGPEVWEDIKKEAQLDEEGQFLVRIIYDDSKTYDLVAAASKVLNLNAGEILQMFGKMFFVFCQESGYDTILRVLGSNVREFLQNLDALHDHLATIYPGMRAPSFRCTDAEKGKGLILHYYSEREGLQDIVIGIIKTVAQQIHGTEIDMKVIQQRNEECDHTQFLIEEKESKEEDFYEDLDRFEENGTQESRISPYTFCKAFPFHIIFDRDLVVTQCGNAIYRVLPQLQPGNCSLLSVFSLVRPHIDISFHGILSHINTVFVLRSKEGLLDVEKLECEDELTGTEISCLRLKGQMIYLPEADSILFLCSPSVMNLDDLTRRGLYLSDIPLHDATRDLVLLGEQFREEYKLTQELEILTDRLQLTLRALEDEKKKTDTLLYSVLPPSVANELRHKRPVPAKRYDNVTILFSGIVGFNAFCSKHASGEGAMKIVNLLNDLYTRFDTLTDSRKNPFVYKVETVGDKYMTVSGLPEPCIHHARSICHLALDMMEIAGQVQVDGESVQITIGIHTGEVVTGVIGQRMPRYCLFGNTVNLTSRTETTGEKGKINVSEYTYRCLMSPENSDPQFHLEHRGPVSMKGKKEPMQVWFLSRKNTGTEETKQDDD
- Sequence (Q02108 1-690): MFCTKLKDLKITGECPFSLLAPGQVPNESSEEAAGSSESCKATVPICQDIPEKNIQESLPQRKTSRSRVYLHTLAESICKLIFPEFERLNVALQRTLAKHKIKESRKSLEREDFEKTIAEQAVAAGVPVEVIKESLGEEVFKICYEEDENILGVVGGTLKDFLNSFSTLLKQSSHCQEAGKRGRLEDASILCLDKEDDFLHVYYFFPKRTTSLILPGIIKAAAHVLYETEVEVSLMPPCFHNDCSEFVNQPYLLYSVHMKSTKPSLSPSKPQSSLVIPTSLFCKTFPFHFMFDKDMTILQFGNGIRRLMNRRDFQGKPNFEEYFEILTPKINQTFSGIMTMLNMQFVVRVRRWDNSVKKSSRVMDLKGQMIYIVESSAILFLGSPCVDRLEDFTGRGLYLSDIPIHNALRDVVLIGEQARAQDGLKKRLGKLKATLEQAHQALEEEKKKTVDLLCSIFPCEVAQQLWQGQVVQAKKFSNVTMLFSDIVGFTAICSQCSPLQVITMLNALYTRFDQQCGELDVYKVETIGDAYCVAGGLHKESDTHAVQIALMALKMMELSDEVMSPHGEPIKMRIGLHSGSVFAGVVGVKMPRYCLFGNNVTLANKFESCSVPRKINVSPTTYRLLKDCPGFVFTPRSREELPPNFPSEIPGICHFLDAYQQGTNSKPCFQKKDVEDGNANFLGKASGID
- measurement description: cGMP GloSensor cell-based assay, synergy with NO at varied DETA-NO (Example 2b)
- test conditions: [DETA-NO] 10 uM; HEK293 GloSensor cells; read-out: EC50 (Absolute EC50)
pEC50: −log10 of the molar value.
property: pEC50

Prompt: Looking for the measured pEC50 of Fc1ccccc1Cc1nc(-c2nc(C(F)(F)F)n[nH]2)cn2ccnc12 [Compound I-1] , can you help?
Response: 6.00 to 7.00

* * *

- measured on: sGC enzyme (Homo sapiens, UniProt Q02108+Q02153)
- Construct: sGC enzyme activity values in HEK cells, determined by the GloSensor assay; host or cells: HEK293 cells stably expressing GloSensor 40F cGMP biosensor
- Sequence (Q02153 1-619): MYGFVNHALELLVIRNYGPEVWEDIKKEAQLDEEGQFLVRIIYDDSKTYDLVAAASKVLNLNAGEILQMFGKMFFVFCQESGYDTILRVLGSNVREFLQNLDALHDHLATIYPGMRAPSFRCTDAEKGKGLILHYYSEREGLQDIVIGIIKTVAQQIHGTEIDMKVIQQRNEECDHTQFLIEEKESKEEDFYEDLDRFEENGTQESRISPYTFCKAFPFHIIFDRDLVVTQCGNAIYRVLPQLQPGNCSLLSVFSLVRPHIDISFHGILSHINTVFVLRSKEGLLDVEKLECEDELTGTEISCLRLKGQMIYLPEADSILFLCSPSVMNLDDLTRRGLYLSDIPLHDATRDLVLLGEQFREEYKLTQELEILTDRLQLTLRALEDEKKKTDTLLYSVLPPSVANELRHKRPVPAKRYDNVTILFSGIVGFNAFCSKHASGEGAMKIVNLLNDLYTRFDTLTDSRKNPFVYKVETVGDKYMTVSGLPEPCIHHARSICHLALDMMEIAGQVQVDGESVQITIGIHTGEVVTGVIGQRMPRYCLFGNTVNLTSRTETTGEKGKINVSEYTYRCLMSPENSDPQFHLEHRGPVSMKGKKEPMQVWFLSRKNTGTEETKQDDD
- Sequence (Q02108 1-690): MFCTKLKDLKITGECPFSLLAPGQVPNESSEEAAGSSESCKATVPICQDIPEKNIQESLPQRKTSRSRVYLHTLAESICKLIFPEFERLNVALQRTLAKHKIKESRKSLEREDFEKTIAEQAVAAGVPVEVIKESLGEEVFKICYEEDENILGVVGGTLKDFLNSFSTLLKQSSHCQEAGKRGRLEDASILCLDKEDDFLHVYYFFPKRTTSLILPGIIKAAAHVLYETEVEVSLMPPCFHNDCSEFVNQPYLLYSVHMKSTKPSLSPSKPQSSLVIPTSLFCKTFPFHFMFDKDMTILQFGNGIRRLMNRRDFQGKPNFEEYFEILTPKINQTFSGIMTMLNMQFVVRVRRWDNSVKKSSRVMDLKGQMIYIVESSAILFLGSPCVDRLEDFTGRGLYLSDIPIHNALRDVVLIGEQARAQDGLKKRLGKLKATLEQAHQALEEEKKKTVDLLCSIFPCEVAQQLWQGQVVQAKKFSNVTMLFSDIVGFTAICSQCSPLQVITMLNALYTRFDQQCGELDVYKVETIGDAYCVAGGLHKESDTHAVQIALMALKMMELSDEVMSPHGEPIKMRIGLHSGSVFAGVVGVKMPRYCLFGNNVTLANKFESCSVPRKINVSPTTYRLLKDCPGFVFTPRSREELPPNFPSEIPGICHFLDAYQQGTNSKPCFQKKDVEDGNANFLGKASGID
- measurement description: cGMP GloSensor cell-based assay, synergy with NO at varied DETA-NO (Example 2b)
- test conditions: [DETA-NO] 3.33 uM; HEK293 GloSensor cells; read-out: EC50 (Absolute EC50)
property: EC50

Prompt: Suppose we examine the molecule Fc1ccccc1Cc1nc(-c2nc(C(F)(F)F)n[nH]2)cn2ccnc12 ; what EC50 value has been reported?
Response: 100 to 1000 nM

* * *

Entries and their measured pEC50 follow.
- measured on: sGC enzyme (Homo sapiens, UniProt Q02108+Q02153)
- Construct: sGC enzyme activity values in HEK cells, determined by the GloSensor assay; host or cells: HEK293 cells stably expressing GloSensor 40F cGMP biosensor
- measurement description: cGMP GloSensor cell-based assay, 384-well format (Example 2a)
- test conditions: HEK293 GloSensor 40F cGMP cells; 10 μM DETA-NONOate; 50% of high control (30 μM Compound Y); read-out: Abs EC50
pEC50: −log10 of the molar value.

# compound, property, endpoint value
data = [
    ("Cc1c(F)cc(Cc2nc(-c3nc(C(F)F)n[nH]3)cn3ccnc23)cc1F [Compound I-35]", "pEC50", "≥ 7.00"),
    ("Cc1nc(-c2cn3ccnc3c(Cc3ccccc3F)n2)nn1Cc1cccc(F)c1 [Compound I-47]", "pEC50", "≥ 7.00"),
    ("Cc1nc(-c2cn3ccnc3c(Cc3ccccc3F)n2)nn1CC(=O)C(C)(C)C [Compound I-48]", "pEC50", "≥ 7.00"),
]

Prompt: Suppose we examine the compound Fc1ccc(F)c(Cc2nc(-c3nc(C(F)F)n[nH]3)cn3ccnc23)c1 [Compound I-9] ; what pEC50 value has been reported?
Response: ≥ 7.00

Prompt: Which measured pEC50 value corresponds to Nc1nc(-c2cn3ccnc3c(Cc3ccccc3F)n2)nn1CC(F)(F)F [Compound I-59] ?
Response: ≥ 7.00

* * *

- measurement description: Non-human primate (NHP) CSF pharmacokinetic properties (Example 6)
- Type: in vivo, Cynomolgus monkeys
- test conditions: male, CSF / unbound plasma; Cynomolgus monkey, 1 mg/kg PO, @ 24 h
property: Kp uu at 24 h

Prompt: So what's the measured Kp uu at 24 h for this one? Fc1ccccc1Cc1nc(-c2nc(C(F)(F)F)n[nH]2)cn2ccnc12
Response: 2.1
